Biological target: flavin binding site of complex I (IF) (Rattus norvegicus)
Construct: freshly isolated muscle mitochondria were assayed; from tissue; host or cells: rat skeletal muscle mitochondria (Wistar, Harlan Laboratories)
Sequence (Q5XIH3 21-464 limits assumed, one chain of several): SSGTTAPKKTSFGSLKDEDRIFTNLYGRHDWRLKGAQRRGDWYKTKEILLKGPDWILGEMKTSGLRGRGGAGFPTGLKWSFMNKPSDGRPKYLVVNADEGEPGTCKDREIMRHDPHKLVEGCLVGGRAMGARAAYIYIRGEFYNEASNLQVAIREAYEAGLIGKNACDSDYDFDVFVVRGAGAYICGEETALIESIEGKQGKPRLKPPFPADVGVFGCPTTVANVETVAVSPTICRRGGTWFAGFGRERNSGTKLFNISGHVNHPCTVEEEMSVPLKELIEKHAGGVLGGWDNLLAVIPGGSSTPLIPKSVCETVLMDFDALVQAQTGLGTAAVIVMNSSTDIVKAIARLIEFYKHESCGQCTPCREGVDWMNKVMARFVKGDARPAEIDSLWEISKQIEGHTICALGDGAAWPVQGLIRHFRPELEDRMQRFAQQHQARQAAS
Assay: High-throughput screen: ROS production from flavin binding site of complex I (IF)
Format: biochemical
Details: Table 8; percent change in ROS from DMSO controls
Mark each entry Yes if its IF sits below -3, and No for all others.

Consider the worked cases shown below.
compound	group
Cc1ccc(C)c(CN(CCCN(C)C)CCCN(C)C)c1 [Compound 32]	Yes
O=S(=O)(Nc1ccc(Br)cc1)c1ccc(C2CCCCC2)cc1 [Compound 8]	Yes
Fc1ccc(SCCc2ccccn2)cc1 [Compound 42]	No
O=C(O)CSc1cccc(C(=O)Nc2ccc(Br)cc2)c1 [Compound 47]	No

# evaluate next
Q. Determine whether this compound shows IF lower than -3 (ties excluded): COc1ccc(Cl)cc1N(Cc1ccccc1)Cc1ccccc1 [Compound 34]
A. No
